Item-by-item account of IC50, FLIPR calcium mobilisation
- tested system: rat nerve growth factor (beta-NGF) (rat, UniProt P25427 122-241)
- Sequence (P25427 122-241): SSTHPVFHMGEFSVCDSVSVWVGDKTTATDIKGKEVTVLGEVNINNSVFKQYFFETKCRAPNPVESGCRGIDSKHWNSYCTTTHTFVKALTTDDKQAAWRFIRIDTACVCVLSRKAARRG
- protocol details: cell-based or functional assay
# answer = value followed by unit

Consider the reported IC50, FLIPR calcium mobilisation for these binders:
binder	measured
G1165D4 human IgG4 (antibody, V domains shown) VH: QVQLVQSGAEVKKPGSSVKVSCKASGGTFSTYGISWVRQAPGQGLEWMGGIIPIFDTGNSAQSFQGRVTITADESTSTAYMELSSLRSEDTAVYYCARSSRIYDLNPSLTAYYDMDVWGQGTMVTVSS VL: QSVLTQPPSVSAAPGQKVTISCSGSSSNIENNYVSWYQQLPGTAPKLLIYDNNKRPSGIPDRFSGSKSGTSATLGITGLQTGDEADYYCGTWDSSLSAWVFGGGTKLTV	0.33 nM
1227H8 human IgG4 (antibody, V domains shown) VH: QMQLVQSGAEVKKTGSSVKVSCKASGHTFAYHYLHWVRQAPGQGLEWMGGIIPIFGTTNYAQRFQDRVTITADESTSTAYMELSSLRSEDTAVYYCASADYAWESYQPPQINGVWGRGTMVTVSS VL: QSVLTQPPSVSAAPGQKVTITCSGSTSNIGNNYVSWYQQHPGKAPKLMIYDVSKRPSGVPDRFSGSKSGNSASLDISGLQSEDEADYYCAAWDDSLSEFFFGTGTKLTVL	0.43 nM
1126H5 human IgG4 (antibody, V domains shown) VH: EVQLVQSGAEVKKPGSSVKVSCKASGGTFSTYGISWVRQAPGQGLEWIGGIIPIFDAGNSAQSFQGRVTITADESTSTAHMEVSSLRSEDTAVYYCASSSRIYDHHIQKGGYYDMDVWGQGTMVTVSS VL: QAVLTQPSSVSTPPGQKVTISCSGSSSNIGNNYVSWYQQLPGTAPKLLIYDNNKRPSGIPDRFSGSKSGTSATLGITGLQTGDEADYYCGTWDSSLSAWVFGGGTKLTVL	0.15 nM
1175H8 human IgG4 (antibody, V domains shown) VH: EVQLVQSGAEVKKPGSSVKVSCKASGGTFSTYGISWVRQAPGQRLEWIGGIIPIFDTGNSAQSFQGRVTITADESTSTAYMEVSSLRSDDTAVYYCASSSRIYDATTGLTPYYDMDVWGQGTMVTVSS VL: QAVLTQPSSVSTPPGQKVTISCSGSSSNIGNNYVSWYQQLPGTAPKLLIYDNNKRPSGIPDRFSGSKSGTSATLGITGLRTGDEADYYCGTWDSSLSAWVFGGGTKLTVL	0.15 nM

Shift focus to the following entry.
## Input # lookup: IC50, FLIPR calcium mobilisation of 1158A1 human IgG4 (antibody, V domains shown) VH: EVQLVQSGAEVKKPGSSVKVSCKASGGTFSTYGISWVRQAPGQGLEWIGGIIPIFGTGNSAQSFQGRVTITADESTSTAYMEVSSLRSDDTAVYYCASSSRIYDHHNHVGGYYDMDVWGQGTMVTVSS VL: QAVLTQPSSVSTPPGQKVTISCSGSSSNIGNNYASWYQQLPGTAPKLLIYDNNKRPSGIPDRFSGSKSGTSATLGITGLQTGDEADYYCGTWDGSLSAWVFGGGTKLTVL
## Output 0.12 nM
